biological target: human CYP4A11 (Homo sapiens (Human)); experiment: Inhibition test against 20-HETE producing enzyme CYP4A11 (luciferine derivative, luminescence); type: biochemical; conditions: E. coli membrane fraction expressing human CYP4A11, 60 μM luciferine derivative, room temperature 60 minutes
Sequence (Q02928 5-519): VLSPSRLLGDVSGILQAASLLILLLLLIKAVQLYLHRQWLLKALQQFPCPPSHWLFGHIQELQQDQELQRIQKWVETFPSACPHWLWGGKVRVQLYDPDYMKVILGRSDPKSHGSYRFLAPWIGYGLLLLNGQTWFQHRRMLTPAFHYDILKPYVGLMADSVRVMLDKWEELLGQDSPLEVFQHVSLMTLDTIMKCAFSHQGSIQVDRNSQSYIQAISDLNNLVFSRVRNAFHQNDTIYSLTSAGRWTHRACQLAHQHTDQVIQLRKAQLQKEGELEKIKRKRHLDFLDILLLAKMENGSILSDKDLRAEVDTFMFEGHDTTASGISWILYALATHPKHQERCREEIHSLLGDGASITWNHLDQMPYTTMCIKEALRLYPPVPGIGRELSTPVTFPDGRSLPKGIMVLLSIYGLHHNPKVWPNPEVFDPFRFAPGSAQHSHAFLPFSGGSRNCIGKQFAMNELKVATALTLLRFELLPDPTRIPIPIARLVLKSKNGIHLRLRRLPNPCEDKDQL
pIC50: −log10 of the molar value.
Record MET whenever pIC50 is at 7 or higher; record NOT MET when lower.

-- ask Is the recorded value of pIC50 equal to or greater than 7 for this compound? "O=C(O)Cc1cccc(CCOc2ccc(-c3ccn[nH]3)nc2)c1"
-- reply MET

-- ask Also "Oc1cccc(CCOc2ccc(-c3ccn[nH]3)nc2)c1" ?
-- reply NOT MET

-- ask Also O=C(O)C1CCc2ccc(COc3ccc(-c4ccn[nH]4)nc3)cc2C1 (stereo not drawn) ?
-- reply MET

-- ask Also "CN([C@H]1CC[C@H](Oc2ccc(-c3ccn[nH]3)nc2)CC1)S(C)(=O)=O" ?
-- reply NOT MET

-- ask Also "O=C(O)Cc1cccc(COc2ccc(-c3cncs3)nc2)c1" ?
-- reply MET

-- ask Also O=C(O)C1CCC(COc2ccc(-c3ccn[nH]3)nc2)CC1 (stereo not drawn) [Example 1-42] ?
-- reply MET

-- ask Also "O=C(O)Cc1cccc(COc2ccc(-c3ccn[nH]3)nc2)c1" ?
-- reply MET

-- ask Also "O=C(O)CCCc1ccc(CCOc2ccc(-c3ccn[nH]3)nc2)cc1" ?
-- reply NOT MET

The origin of these recorded values is patent US11365192B2.
